B1: Zyxin (Homo sapiens), Q15942 (parent)
chain: MAAPRPSPAISVSVSAPAFYAPQKKFGPVVAPKPKVNPFRPGDSEPPPAPGAQRAQMGRVGEIPPPPPEDFPLPPPPLAGDGDDAEGALGGAFPPPPPPIEESFPPAPLEEEIFPSPPPPPEEEGGPEAPIPPPPQPREKVSSIDLEIDSLSSLLDDMTKNDPFKARVSSGYVPPPVATPFSSKSSTKPAAGGTAPLPPWKSPSSSQPLPQVPAPAQSQTQFHVQPQPQPKPQVQLHVQSQTQPVSLANTQPRGPPASSPAPAPKFSPVTPKFTPVASKFSPGAPGGSGSQPNQKLGHPEALSAGTGSPQPPSFTYAQQREKPRVQEKQHPVPPPAQNQNQVRSPGAPGPLTLKEVEELEQLTQQLMQDMEHPQRQNVAVNELCGRCHQPLARAQPAVRALGQLFHIACFTCHQCAQQLQGQQFYSLEGAPYCEGCYTDTLEKCNTCGEPITDRMLRATGKAYHPHCFTCVVCARPLEGTSFIVDQANRPHCVPDYHKQYAPRCSVCSEPIMPEPGRDETVRVVALDKNFHMKCYKCEDCGKPLSIEADDNGCFPLDGHVLCRKCHTARAQT

# Variants of: B1
# RUN_CONDITIONS: with enah_human ENAH
RECORDED_ENDPOINT: effect of a mutation on the interaction

F71A;F93A : decreasing interaction
F93A : decreasing interaction
F71A : decreasing interaction
F71A;F93A;F104A : decreasing interaction

Data origin: IntAct's records for PubMed 10801818
